B1: library; numbered along this chain (parent)
chain: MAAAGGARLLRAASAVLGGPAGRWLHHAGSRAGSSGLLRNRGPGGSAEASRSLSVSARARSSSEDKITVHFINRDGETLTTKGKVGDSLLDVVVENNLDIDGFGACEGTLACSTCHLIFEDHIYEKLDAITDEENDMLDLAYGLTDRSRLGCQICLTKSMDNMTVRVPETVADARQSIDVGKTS

- Variants of: B1
- method-summary: scaled log2 fold change in cell abundance, elesclomol vs control (0 = silent mean, 1 = nonsense mean) (scaled log2 ratio); higher = higher viability under elesclomol (loss of FDX1 cuproptosis function);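 also: variant abundance is its share of total variant reads in each endpoint sample, from next-generation sequencing of the integrated ORF PCR-amplified out of genomic DNA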
- particulars: with ABC1 FDX1 KO; elesclomol 5 nM; glucose 10 mM; 14 days
measured-attribute: scaled log2 fold change

{"mutation-spec": "T78R", "measured-attribute": "scaled log2 fold change", "result": -0.905}

Give me scaled log2 fold change for each of these variants, listed below.
1. G108Q
2. L10Q
3. T164V
4. Y124R
5. G102M
6. V180Q

1: 0.767; 2: 0.168; 3: 0.342; 4: 0.234; 5: -0.196; 6: 0.0492

Value source: the supplement of paper PMC12855868
